Kindly state log10 of EC50 for each of the entries shown.
- STUDY SYSTEM: PAR4 (Homo sapiens (Human))
- PROTOCOL NOTES: FLIPR assay in PAR4-expressing HEK293 cells (PAR4 antagonist activity, calcium mobilization)
- Assay type: cell-based
- SETTINGS: H-Ala-Phe(4-F)-Pro-Gly-Trp-Leu-Val-Lys-Asn-Gly-NH2-induced calcium mobilization
Kindly note that the scale is log10 and the underlying EC50 is in nM.

input: Record "COc1cc(OCc2csc(N3CCN(c4cccc(Cl)n4)CC3)n2)c2cc(-c3cn4nc(C)ccc4n3)oc2c1" : what is its log10 of EC50 with PAR4 (Homo sapiens (Human))?
output: 0.04

input: Another molecule: "COc1cc(OCc2csc(N3CCC4(CC3)CC4)n2)c2cc(-c3cn4nc(C)ccc4n3)oc2c1"
output: 0.15

input: Another molecule: "COc1cc(OCc2csc(Nc3ccc4scnc4c3)n2)c2cc(-c3cn4nc(C)ccc4n3)oc2c1"
output: -0.22

input: Another molecule: "COc1cc(OCc2csc(C3CCSCC3)n2)c2cc(-c3cn4nc(C)ccc4n3)oc2c1"
output: -0.14

input: Another molecule: COc1cc(OCc2csc(N3CCOC(C)C3)n2)c2cc(-c3cn4nc(C)ccc4n3)oc2c1 (stereo not drawn)
output: 0.04

input: Another molecule: COc1cc(OCc2csc(C3(c4ccc(Cl)cc4)CCOC3)n2)c2cc(-c3cn4nc(C)ccc4n3)oc2c1 (stereo not drawn)
output: 0.08

input: Another molecule: "COc1cc(OCc2csc(N3CCC[C@@H]3C)n2)c2cc(-c3cn4nc(C)ccc4n3)oc2c1"
output: 0.53

input: Another molecule: "COc1cc(OCc2csc(Nc3cc(F)ccc3F)n2)c2cc(-c3cn4nc(C)ccc4n3)oc2c1"
output: 1.68

input: Another molecule: "COc1cc(OCc2csc(-c3ccc(C)nc3)n2)c2cc(-c3cn4nc(OC)sc4n3)oc2c1"
output: -0.25

* * *

- STUDY SYSTEM: PAR4 (Homo sapiens (Human), UniProt Q96RI0)
- Sequence (Q96RI0 18-385): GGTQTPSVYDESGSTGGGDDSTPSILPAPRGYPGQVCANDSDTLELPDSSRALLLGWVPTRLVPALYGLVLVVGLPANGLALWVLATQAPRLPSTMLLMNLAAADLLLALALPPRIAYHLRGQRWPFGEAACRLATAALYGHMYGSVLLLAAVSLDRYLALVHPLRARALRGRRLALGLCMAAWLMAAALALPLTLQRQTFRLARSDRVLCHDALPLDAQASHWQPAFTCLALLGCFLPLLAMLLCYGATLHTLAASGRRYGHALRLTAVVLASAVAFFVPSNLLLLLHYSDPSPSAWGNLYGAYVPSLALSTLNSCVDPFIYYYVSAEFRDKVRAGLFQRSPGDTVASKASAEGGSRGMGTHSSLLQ
- PROTOCOL NOTES: FLIPR assay in PAR4-expressing HEK293 cells (PAR4 antagonist activity, calcium mobilization)
- Assay type: cell-based
- SETTINGS: H-Ala-Phe(4-F)-Pro-Gly-Trp-Leu-Val-Lys-Asn-Gly-NH2-induced calcium mobilization
- Text: The FLIPR assay is an exemplary in vitro assay for measuring the activity of the PAR4 antagonists of the present invention. In this assay, intracellular calcium mobilization is induced in PAR4 expressing cells by a PAR4 agonist and calcium mobilization is monitored. See, e.g., Example A. […]
Kindly state pEC50 for each of the entries shown.
Formally, pEC50 is defined as -log10 of the concentration c, with c in mol/L.

input: Data request, read-out pEC50, for "COc1cc(OCc2csc(N3C[C@@H](C)O[C@@H](C)C3)n2)c2cc(-c3cn4nc(C)ccc4n3)oc2c1"
output: 9.00

input: Another compound: "COc1cc(OCc2nc(-c3ccc(C(=O)N(C)CC#N)cc3)sc2C)c2cc(-c3cn4nc(OC)sc4n3)oc2c1"
output: 9.29

input: Another compound: "COc1cc(OCc2csc(-c3ccccc3F)n2)c2cc(-c3cn4nc(OC)sc4n3)oc2c1"
output: 8.74

input: Another compound: "COCCNc1nc(COc2cc(OC)cc3oc(-c4cn5nc(C)ccc5n4)cc23)cs1"
output: 7.96

input: Another compound: "CCN(CC1CC1)C(=O)c1ccc(-c2nc(COc3cc(OC)cc4oc(-c5cn6nc(OC)sc6n5)cc34)cs2)cc1"
output: 9.11

input: Another compound: "COc1cc(OCc2csc(N(C)C)n2)c2cc(-c3cn4nc(C)ccc4n3)oc2c1"
output: 8.14

input: Another compound: "COc1cc(OCc2csc(N3CCN(c4ccccn4)CC3)n2)c2cc(-c3cn4nc(C)ccc4n3)oc2c1"
output: 8.92

input: Another compound: "COc1cc(OCc2csc(-c3ccc(C(=O)N(C)C(C)(C)C)cc3)n2)c2cc(-c3cn4nc(OC)sc4n3)oc2c1"
output: 9.28

input: Another compound: "COc1cc(OCc2csc(-c3cnccn3)n2)c2cc(-c3cn4nc(OC)sc4n3)oc2c1"
output: 8.89

input: Another compound: "COc1cc(OCc2csc(N3CCN(C(=O)OC(C)(C)C)CC3)n2)c2cc(-c3cn4nc(OC)sc4n3)oc2c1"
output: 9.08

input: Another compound: "COc1cc(OCc2nc(-c3ccnc(F)c3)sc2C)c2cc(-c3cn4nc(C)ccc4n3)oc2c1"
output: 9.51
